Reference source for all entries: ChEMBL document CHEMBL1201862

System: HCC 2998
experimental.details: NCI tumour cell line growth inhibition, 48 h
Calls of active or inactive are those of the source. Rule as the data show it: active = GI50 up to about 1.1 µM and inactive = higher.
reported.property: GI50

[[record]]
molecule = "O=C1NC2OCC(O)C(O)C2O1 (stereo unspecified)"
reported_property = "GI50"
result = "> 100 µM (inactive)"

[[record]]
molecule = "CCOC(=O)C1(C(=O)OCC)C[C@]23OCCC(=O)[C@H]2[C@H]2C(=O)OC(C)(C)O[C@]23C1"
reported_property = "GI50"
result = "> 100 µM (inactive)"

[[record]]
molecule = "CNc1ccc(C)cc1S(=O)(=O)c1ccccc1[N+](=O)[O-]"
reported_property = "GI50"
result = "92.5 µM (inactive)"

[[record]]
molecule = "CC(=O)OC1CCn2c1nc1c2C(=O)C=C(N2CC2)C1=O (stereo unspecified)"
reported_property = "GI50"
result = "1.45 µM (inactive)"

[[record]]
molecule = "CC(=O)OC1CC2C(C)(C)C(=O)C=C[C@]2(C)C2CCC3(C)C(=CCC3[C@H](CO)C[C@H](O)C(=O)C(C)(C)O)[C@]12C (stereo partly specified)"
reported_property = "GI50"
result = "18.1 µM (inactive)"

[[record]]
molecule = "Cc1cc(C)cc(Nc2nnc3n2S(=O)(=O)c2cc(C)c(Cl)cc2S3)c1"
reported_property = "GI50"
result = "4.8 µM (inactive)"

[[record]]
molecule = "CCN(CC)CCNC(=O)c1nn(C)c(=S)[nH]c1=S"
reported_property = "GI50"
result = "> 100 µM (inactive)"

[[record]]
molecule = "O=C(O)c1ccc(N/C(=C(/C(Cl)=C(Cl)Cl)[N+](=O)[O-])n2nnc3ccccc32)cc1"
reported_property = "GI50"
result = "> 100 µM (inactive)"

[[record]]
molecule = "COC(=O)c1ccc2c(c1)CC1(C2)Cc2cc3c(cc2C1)CCC3"
reported_property = "GI50"
result = "> 100 µM (inactive)"

[[record]]
molecule = "Cc1sc(/N=C/c2c[nH]c3ccccc23)c(C#N)c1C"
reported_property = "GI50"
result = "14.9 µM (inactive)"

[[record]]
molecule = "O=c1c2cc(S(=O)(=O)Nc3c(Cl)cccc3Cl)ccc2ncn1NS(=O)(=O)c1ccc2ccccc2c1"
reported_property = "GI50"
result = "24.4 µM (inactive)"

[[record]]
molecule = "O=C(O)c1ccccc1C(=O)NCC1S(=O)(=O)OCCOS1(=O)=O"
reported_property = "GI50"
result = "> 100 µM (inactive)"

[[record]]
molecule = "CC(C)OP(=O)(OC(C)C)c1ncn(-c2ccc([N+](=O)[O-])cc2)n1"
reported_property = "GI50"
result = "86.7 µM (inactive)"

[[record]]
molecule = "CCCN(CCC)c1c([N+](=O)[O-])cc(C(=O)N(CC)CC)cc1[N+](=O)[O-]"
reported_property = "GI50"
result = "37.1 µM (inactive)"

[[record]]
molecule = "Cc1nc2ccc(/N=N/N(C)C)cc2[nH]1"
reported_property = "GI50"
result = "> 100 µM (inactive)"

[[record]]
molecule = "Cc1[nH]c2ncn(/N=C/c3ccccc3)c(=N)c2c1Cc1ccccc1"
reported_property = "GI50"
result = "83.9 µM (inactive)"

[[record]]
molecule = "CCCCCCCCCCn1cccc1/C=C/c1ccc(/C=C/c2cccn2CCCCCCCCCC)cc1"
reported_property = "GI50"
result = "> 100 µM (inactive)"

[[record]]
molecule = "Nc1nc(Cl)cc(NCC2(CO)CCCC2)n1"
reported_property = "GI50"
result = "> 100 µM (inactive)"

[[record]]
molecule = "CC(C)(C)OC(=O)C1/C(=C/CBr)CN1C(=O)OC(C)(C)C (stereo unspecified)"
reported_property = "GI50"
result = "16.9 µM (inactive)"

[[record]]
molecule = "O=C(Cn1nc(Br)c(Br)c1Br)c1ccccc1"
reported_property = "GI50"
result = "36.6 µM (inactive)"

[[record]]
molecule = "CCCCCCCCCCCc1cc(=O)c2c(O)cccc2o1"
reported_property = "GI50"
result = "66.2 µM (inactive)"

